Source listed as PubChem BioAssay (NCI).

- Tested on: T-47D breast
- assay_remarks: NCI-60 one-dose screen, 48 h (100 = growth as untreated, 0 = no growth, -100 = all killed)
- measurement_setup: 10 µM unless noted
The panel holds about 83,000 compounds, 20% with a hit somewhere; the sample as a whole holds those more often.
readout_name: growth (%)
Report the value in % with no unit label.

Value (growth, T-47D breast) for record COc1ccc2[nH]c(=O)c(CSc3ccccc3Nc3nccc(-c4ccc(C(F)(F)F)cc4)n3)cc2c1 = 11.3

Value (growth, T-47D breast) for record O=C(CSc1nnc(-c2ccc(-c3nc4ccccc4[nH]3)cc2)o1)Nc1ccccc1 = 109

Value (growth, T-47D breast) for record Cc1nc(N)ncc1-c1ccc2ncnc(N3CCc4cc(F)c(Cl)cc43)c2c1 = 28.1

Value (growth, T-47D breast) for record N#CC1=C(c2cccs2)Nc2c(c(-c3ccccc3)nn2-c2ccccc2)C12C(=O)Nc1ccc(Cl)cc12 (centres undefined) = 11

Value (growth, T-47D breast) for record CC(C)(C)C(=O)c1c2c(c3ccc4c5ccccc5ccc4n13)C(=O)c1ccccc1C2=O = 95.6

Value (growth, T-47D breast) for record Cc1ccc2nc(NC(=O)Nc3cccc(Cl)c3)sc2c1 = 98.5

Value (growth, T-47D breast) for record COc1ccc(-c2cc(C(=O)N=Nc3c(O)[nH]c4ccc(Cl)cc34)c3ccccc3n2)cc1 = 102

Value (growth, T-47D breast) for record COc1ccc2[nH]c(O)c(N=Nc3nc(-c4ccc(Cl)cc4)cs3)c2c1 = -21.5

Value (growth, T-47D breast) for record COc1sc(/C=N/NC(=O)c2[nH]c3ccc(Br)cc3c2-c2ccccc2)cc1Br = 62

---

- Tested on: SF-295 CNS
- assay_remarks: NCI-60 one-dose screen, 48 h (100 = growth as untreated, 0 = no growth, -100 = all killed)
- measurement_setup: 10 µM unless noted
About 83,000 compounds went through this panel and 20% of them were active in at least one assay; those are over-represented in the sample as a whole.
readout_name: growth (%)
Report the value in % with no unit label.

O=C(c1ccc(O)cc1)C1[C@H](c2ccc(Cl)cc2)[C@@H](c2ccccc2)NC12C(=O)Nc1ccc(Br)cc12 (some centres undefined) has a reported growth of -60.8

CC(C)(C)c1cc(-c2cc(-c3ccccc3)[nH]c(=O)c2C#N)cc(C(C)(C)C)c1 has a reported growth of 0.897

COc1sc(/C=N/NC(=O)c2[nH]c3ccc(Br)cc3c2-c2ccccc2)cc1Cl has a reported growth of -40.6

COc1ccc(C2=Nc3c(N)nc(N)nc3NC(c3ccc(Oc4nc(Nc5ccc(F)cc5)nc(N(C)C)n4)c(OC)c3)C2)cc1 (centres undefined) has a reported growth of 85.7

---

- System: 786-0 renal
- assay_remarks: NCI-60 one-dose screen, 48 h (100 = growth as untreated, 0 = no growth, -100 = all killed)
- measurement_setup: 10 µM unless noted
The panel holds about 83,000 compounds, 20% with a hit somewhere; the sample as a whole holds those more often.
readout_name: growth (%)
Report the value in % with no unit label.

Value (growth, 786-0 renal) for record N#Cc1ccc(C(=O)CSc2nc3c(c(Nc4ccc(S(N)(=O)=O)cc4)n2)CCC3)cc1 = -22.3

Value (growth, 786-0 renal) for record CN(C)CCCc1ccc(Nc2cnn(C)c(=O)c2Cl)cc1 = 95.9

Value (growth, 786-0 renal) for record Cn1cc(-c2cc(N)n3nc(-c4c[nH]c5ccccc45)cc3n2)c2cc(F)ccc21 = -2.12

Value (growth, 786-0 renal) for record O=C(CSc1nnc(-c2ccc(-c3nc4ccc(Cl)cc4[nH]3)cc2)o1)Nc1ccccc1 = -59

Value (growth, 786-0 renal) for record NC(=O)c1ccc(-c2ccc3ncnc(N4CCc5cc(F)c(Cl)cc54)c3c2)cn1 = 66.5
